Provide the recorded Kb for the entries that follow.
Biological target: V2-vasopressin receptors (Sus scrofa, UniProt P32307)
Construct: in the medullary tissue of hog kidneys; from tissue; host or cells: hog kidney medullary tissue
Sequence (P32307 whole entry): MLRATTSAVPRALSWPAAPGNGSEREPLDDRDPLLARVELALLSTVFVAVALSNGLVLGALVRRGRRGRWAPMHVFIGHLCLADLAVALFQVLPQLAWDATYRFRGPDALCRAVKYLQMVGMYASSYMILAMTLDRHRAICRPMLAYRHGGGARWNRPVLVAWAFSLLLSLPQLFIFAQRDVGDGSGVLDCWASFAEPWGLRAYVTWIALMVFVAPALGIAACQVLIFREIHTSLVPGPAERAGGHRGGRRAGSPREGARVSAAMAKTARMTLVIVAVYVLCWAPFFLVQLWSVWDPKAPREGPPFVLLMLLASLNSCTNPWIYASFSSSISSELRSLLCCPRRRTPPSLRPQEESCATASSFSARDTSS
Experiment: receptor binding ability measured by inhibition of 3H-LVP binding
Conditions: read-out: Pig V2 KB
Description: Antagonistic activity at the V2 -vasopressin receptors is determined in a protocol which determines in vitro activity in pig tissue or in vivo diuretic activity in the hydropenic rat (ED300 μg/kg). These procedures are described in the literature. […] Antagonistic activity at the V1 -vasopressin receptors is determined in a protocol which measures the reversal of the vasopressin induced contraction of rat thoracic aorta tissue. This is expressed as KB (nM) in the table below. […]
*1 amine or outer side, *2 acyl side, *3 side chain or, on linkers, in order; H or OH if unused. Where a SMILES comes first, the peptide text is derived from it. Bridges are numbered along the chain shown (N, C = ends). [ ]: non-standard residue; d: D form. X1 = O=C(CC1(S[*:2])CCCCC1)[*:1]; αMeV = CC(C)[C@](C)(N)C(=O)O
Note: unit nM is implicit; provide only the numeric part.

Lookup: Item under review: CCOc1ccc(C[C@H]2NC(=O)CC3(CCCCC3)SSC[C@@H](C(=O)N3CCC[C@H]3C(=O)N[C@@H](CCCN=C(N)N)C(=O)NCC(N)=O)NC(=O)[C@H](CC(N)=O)NC(=O)[C@H](C(C)C)NC(=O)[C@H](Cc3ccccc3)NC2=O)cc1 [G, reference compound] ([dY](Et)FVNCPRG-NH2; linker N-5 via X1) . Reported Kb?
Found: 6.7

Lookup: Item under review: COc1ccc(C[C@@H]2NC(=O)CC3(CCCCC3)SSC[C@@H](C(=O)N3CCC[C@H]3C(=O)N[C@@H](CCCNC(=N)N)C(=O)NCC(N)=O)NC(=O)[C@H](CC(N)=O)NC(=O)[C@](C)(C(C)C)NC(=O)[C@H](Cc3ccccc3)NC2=O)cc1 [D] (Y(Me)F[αMeV]NCPRG-NH2; linker N-5 via X1) . Reported Kb?
Found: 170

Lookup: Item under review: COc1ccc(C[C@@H]2NC(=O)CC3(CCCCC3)SSC[C@@H](C(=O)N3CCC[C@H]3C(=O)N[C@@H](CCCN=C(N)N)C(=O)NCC(N)=O)NC(=O)[C@H](CC(N)=O)NC(=O)[C@H](C(C)C)NC(=O)[C@H](Cc3ccccc3)NC2=O)cc1 [F, reference compound] (Y(Me)FVNCPRG-NH2; linker N-5 via X1) . Reported Kb?
Found: 35
